Biological target: V600E full-length B-Raf (Homo sapiens, UniProt P15056, V600E)
Construct: made in house; host or cells: Sf9 insect cells (baculovirus)
Sequence (P15056 whole entry V600E): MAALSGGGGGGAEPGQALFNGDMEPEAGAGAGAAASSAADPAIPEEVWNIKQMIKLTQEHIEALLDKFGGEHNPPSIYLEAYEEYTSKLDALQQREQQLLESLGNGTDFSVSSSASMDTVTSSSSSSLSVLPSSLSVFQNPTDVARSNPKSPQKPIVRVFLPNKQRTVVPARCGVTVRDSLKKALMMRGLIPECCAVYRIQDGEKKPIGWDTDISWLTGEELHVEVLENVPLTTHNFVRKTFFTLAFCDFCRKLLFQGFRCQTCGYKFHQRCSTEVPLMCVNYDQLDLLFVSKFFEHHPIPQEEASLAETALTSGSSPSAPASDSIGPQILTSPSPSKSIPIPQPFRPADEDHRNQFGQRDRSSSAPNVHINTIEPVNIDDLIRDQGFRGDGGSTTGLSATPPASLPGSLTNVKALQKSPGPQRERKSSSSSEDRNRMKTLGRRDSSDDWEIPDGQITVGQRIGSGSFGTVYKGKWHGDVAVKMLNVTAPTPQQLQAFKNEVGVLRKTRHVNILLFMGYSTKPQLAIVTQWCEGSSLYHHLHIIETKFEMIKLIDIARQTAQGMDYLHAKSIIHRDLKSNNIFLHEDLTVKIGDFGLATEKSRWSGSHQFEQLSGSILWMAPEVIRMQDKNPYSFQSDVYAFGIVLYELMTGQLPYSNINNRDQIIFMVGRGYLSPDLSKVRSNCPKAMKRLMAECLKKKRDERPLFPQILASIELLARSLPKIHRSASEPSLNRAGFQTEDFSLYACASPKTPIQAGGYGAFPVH
Assay: B-Raf IC50 assay: incorporation of radio labeled phosphate from [γ-33P]ATP into FSBA-modified wild-type MEK
Type: biochemical
Details: 4 μM ATP, 60-minute incubation, representative data of multiple tests
pIC50: −log10 of the molar value.
OBSERVATION_TYPE: pIC50

Study these solved cases before continuing.
1. COc1n[nH]c2ncc(NC(=O)c3c(F)ccc(OCc4ccccc4)c3F)cc12	8.62
2. COc1n[nH]c2ncc(NC(=O)c3c(Cl)ccc(OCc4ccc(I)cc4)c3F)cc12	8.38
3. COc1n[nH]c2ncc(NC(=O)c3c(Cl)ccc(OC(C)c4ccccc4)c3F)cc12 (stereo not shown)	7.21

I: COc1n[nH]c2ncc(NC(=O)c3c(Cl)ccc(OCc4ccc(C(F)(F)F)cc4)c3F)cc12
II: COc1n[nH]c2ncc(NC(=O)c3c(Cl)ccc(OCc4ccc(Cl)cn4)c3F)cc12
Given I and II , report the one with the higher recorded pIC50. The response must carry the label of the picked entry.
II

###

Biological target: V600E full-length B-Raf (Homo sapiens, UniProt P15056, V600E)
Construct: made in house; host or cells: Sf9 insect cells (baculovirus)
Experiment: B-Raf IC50 assay: incorporation of radio labeled phosphate from [γ-33P]ATP into FSBA-modified wild-type MEK
Type: biochemical
Details: 4 μM ATP, 60-minute incubation, representative data of multiple tests
pIC50: −log10 of the molar value.
OBSERVATION_TYPE: pIC50

Study these solved cases before continuing.
1. O=C(Nc1cnc2[nH]nc(C(F)(F)F)c2c1)c1c(Cl)ccc(OCc2ccccc2)c1F	8.23
2. COc1n[nH]c2ncc(NC(=O)c3c(Cl)ccc(OCc4ccc(S(C)(=O)=O)cc4)c3F)cc12	8.41
3. COc1n[nH]c2ncc(NC(=O)c3c(Cl)ccc(OCc4cccc(C)n4)c3F)cc12	7.82
4. COc1n[nH]c2ncc(NC(=O)c3c(Cl)ccc(OCc4cccc(CN5CCOCC5)c4)c3F)cc12	8.03
5. COc1n[nH]c2ncc(NC(=O)c3c(Cl)ccc(OCc4ccc5c(c4)OCO5)c3F)cc12	8.77

I: COc1n[nH]c2ncc(NC(=O)c3c(C)ccc(OCc4ccc(C(F)(F)F)cc4)c3F)cc12
II: COc1n[nH]c2ncc(NC(=O)c3cc(OCc4ccccc4)ccc3C)cc12
Sorting ascending by pIC50, which comes first: I or II ? The response must carry the label of the picked entry.
II

###

Target: V600E full-length B-Raf (Homo sapiens, UniProt P15056, V600E)
Construct: made in house; host or cells: Sf9 insect cells (baculovirus)
Assay: B-Raf IC50 assay: incorporation of radio labeled phosphate from [γ-33P]ATP into FSBA-modified wild-type MEK
Type: biochemical
Settings: 4 μM ATP, 60-minute incubation, representative data of multiple tests
OBSERVATION_TYPE: IC50 (nM)

1. COc1n[nH]c2ncc(NC(=O)c3c(Cl)ccc(OCc4ccc(F)cc4)c3F)cc12	0.65

I: COc1n[nH]c2ncc(NC(=O)c3c(Cl)ccc(OCc4ccc(C(F)(F)F)cn4)c3F)cc12
II: COc1n[nH]c2ncc(NC(=O)c3c(C)ccc(OCc4ccc(F)cc4)c3F)cc12
Given I and II , report the one with the higher recorded IC50. The response must carry the label of the picked entry.
I
